# maps each entry to its Emax
Target: F876L mutant Androgen Receptor (AR-F876L) (Homo sapiens, UniProt P10275, F877L)
Construct: expressed in transfected cells; host or cells: LNCaP (LNCaP F876L)
Sequence (P10275 1-920 F877L): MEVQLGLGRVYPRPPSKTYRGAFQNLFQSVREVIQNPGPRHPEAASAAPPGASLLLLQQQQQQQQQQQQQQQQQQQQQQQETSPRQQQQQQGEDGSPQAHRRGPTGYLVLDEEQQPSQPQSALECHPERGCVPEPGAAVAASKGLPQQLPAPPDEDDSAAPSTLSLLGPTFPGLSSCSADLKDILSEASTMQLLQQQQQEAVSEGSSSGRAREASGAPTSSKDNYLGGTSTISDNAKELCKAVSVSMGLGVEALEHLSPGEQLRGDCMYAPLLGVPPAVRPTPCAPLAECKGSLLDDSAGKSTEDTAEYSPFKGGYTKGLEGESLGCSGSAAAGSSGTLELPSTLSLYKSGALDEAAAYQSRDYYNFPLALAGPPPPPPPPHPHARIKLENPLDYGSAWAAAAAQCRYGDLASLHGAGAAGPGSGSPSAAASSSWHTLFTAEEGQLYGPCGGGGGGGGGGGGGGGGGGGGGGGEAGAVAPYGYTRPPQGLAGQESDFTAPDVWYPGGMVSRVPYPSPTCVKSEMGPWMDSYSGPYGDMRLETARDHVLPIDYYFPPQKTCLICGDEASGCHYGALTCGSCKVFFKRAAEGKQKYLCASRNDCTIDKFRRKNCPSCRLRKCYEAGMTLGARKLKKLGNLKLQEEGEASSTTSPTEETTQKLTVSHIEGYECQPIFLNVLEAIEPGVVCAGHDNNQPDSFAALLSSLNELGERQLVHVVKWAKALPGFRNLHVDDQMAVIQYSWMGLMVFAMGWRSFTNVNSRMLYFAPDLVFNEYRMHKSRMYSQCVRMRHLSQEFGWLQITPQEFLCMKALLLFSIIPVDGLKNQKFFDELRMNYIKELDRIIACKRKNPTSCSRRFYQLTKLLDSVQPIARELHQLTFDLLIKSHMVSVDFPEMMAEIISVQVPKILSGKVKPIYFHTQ
Experiment: LNCaP-AR-F876L ANT reporter assay (ARE firefly luciferase, antagonist mode)
Format: cell-based
Settings: maximum % inhibition of R1881 control response over tested concentration range; read-out: LNCaP-AR-F876L ANT MAX % Inh
readout-kind: Emax (%)

line_notation=N#Cc1ncc(N2C(=O)C3(CCC3)N(c3ccc(C(=O)NCCCN4CCCC4)c(F)c3)C2=S)cc1C(F)(F)F readout_kind=Emax scale_unit=% assay_result=99.4
line_notation=N#Cc1ncc(N2C(=O)C3(CCC3)N(c3ccc(C(=O)NCCN4CCOCC4)c(F)c3)C2=S)cc1C(F)(F)F readout_kind=Emax scale_unit=% assay_result=99.7
line_notation=Cc1cc(N2C(=O)C3(CCC3)N(c3ccc(OC4CCSCC4)cc3)C2=S)cnc1C#N readout_kind=Emax scale_unit=% assay_result=101
line_notation=CNC(=O)c1ccc(N2C(=S)N(c3cnc(C#N)c(C)c3)C(=O)C23CCC3)cc1C readout_kind=Emax scale_unit=% assay_result=98.3
line_notation=N#Cc1ncc(N2C(=O)C3(CCC3)N(c3ccc(C(=O)NCCc4ccncc4)c(F)c3)C2=S)cc1C(F)(F)F readout_kind=Emax scale_unit=% assay_result=99.7
line_notation=CNS(=O)(=O)c1ccc(N2C(=S)N(c3cnc(C#N)c(C(F)(F)F)c3)C(=O)C23CCC3)cc1 readout_kind=Emax scale_unit=% assay_result=99.7
line_notation=N#Cc1ncc(N2C(=O)C3(CCC3)N(c3ccc(OCCN4CCCC4)c(F)c3)C2=S)cc1C(F)(F)F readout_kind=Emax scale_unit=% assay_result=96.2
line_notation=Cc1cc(N2C(=O)C3(CCC3)N(c3ccc(OC4CCS(=O)(=O)CC4)cc3)C2=S)cnc1C#N readout_kind=Emax scale_unit=% assay_result=99.5
line_notation=Cc1ccc(-c2ccc(N3C(=S)N(c4cnc(C#N)c(C)c4)C(=O)C34CCC4)cc2)o1 readout_kind=Emax scale_unit=% assay_result=98.2
line_notation=N#Cc1ncc(N2C(=O)C3(CCC3)N(c3ccc(Oc4ccccc4)cc3)C2=S)cc1C(F)(F)F readout_kind=Emax scale_unit=% assay_result=85.9
line_notation=Cc1cc(N2C(=O)C3(CCC3)N(c3ccc(OC4CCNCC4)cc3)C2=S)cnc1C#N readout_kind=Emax scale_unit=% assay_result=99.5
line_notation=N#Cc1ncc(N2C(=O)C3(CCC3)N(c3ccc(OC4CCNCC4)cc3)C2=S)cc1C(F)(F)F readout_kind=Emax scale_unit=% assay_result=101
line_notation=CN1CCC(NC(=O)c2ccc(N3C(=S)N(c4cnc(C#N)c(C(F)(F)F)c4)C(=O)C34CCC4)cc2F)CC1 readout_kind=Emax scale_unit=% assay_result=98.4
line_notation=N#Cc1ncc(N2C(=O)C3(CCC3)N(c3ccc(O)cc3F)C2=S)cc1C(F)(F)F readout_kind=Emax scale_unit=% assay_result=99.6
line_notation=CNC(=O)c1ccc(N2C(=S)N(c3cnc(C#N)c(C)c3)C(=O)C23CCC3)cc1F readout_kind=Emax scale_unit=% assay_result=98.7
line_notation=N#Cc1ncc(N2C(=O)C3(CCC3)N(c3ccc(C(=O)NCC4CCCC4)c(F)c3)C2=S)cc1C(F)(F)F readout_kind=Emax scale_unit=% assay_result=98.6
line_notation=Cc1cc(N2C(=O)C3(CCC3)N(c3ccc(-c4cccnc4C)cc3)C2=S)cnc1C#N readout_kind=Emax scale_unit=% assay_result=96
line_notation=N#Cc1ncc(N2C(=O)C3(CCC3)N(c3cccc(F)c3F)C2=S)cc1C(F)(F)F readout_kind=Emax scale_unit=% assay_result=95.9
line_notation=CCOC(=O)CCCNC(=O)c1ccc(N2C(=S)N(c3cnc(C#N)c(C(F)(F)F)c3)C(=O)C23CCC3)cc1F readout_kind=Emax scale_unit=% assay_result=95.5
line_notation=N#Cc1ncc(N2C(=O)C3(CCC3)N(c3ccc(C(=O)NCCCO)c(F)c3)C2=S)cc1C(F)(F)F readout_kind=Emax scale_unit=% assay_result=99.5
line_notation=N#Cc1ncc(N2C(=O)C3(CCC3)N(c3ccc(C(F)(F)F)cc3)C2=S)cc1C(F)(F)F readout_kind=Emax scale_unit=% assay_result=98.9
line_notation=Cc1cc(N2C(=O)C3(CCC3)N(c3ccc(C(=O)Nc4ccc(F)cc4)c(F)c3)C2=S)cnc1C#N readout_kind=Emax scale_unit=% assay_result=91.9
line_notation=N#Cc1ncc(N2C(=O)C3(CCC3)N(c3ccc(OCCN4CCCCC4)cc3F)C2=S)cc1C(F)(F)F readout_kind=Emax scale_unit=% assay_result=98.6
line_notation=N#Cc1ncc(N2C(=O)C3(CCC3)N(c3ccc(C4CCOCC4)cc3)C2=S)cc1C(F)(F)F readout_kind=Emax scale_unit=% assay_result=96.2
line_notation=CCCCNC(=O)c1ccc(N2C(=S)N(c3cnc(C#N)c(C(F)(F)F)c3)C(=O)C23CCC3)cc1F readout_kind=Emax scale_unit=% assay_result=98.2

###

Biological target: F876L mutant Androgen Receptor (AR-F876L) (Homo sapiens, UniProt P10275, F877L)
Construct: expressed in transfected cells; host or cells: LNCaP (LNCaP F876L)
Sequence (P10275 1-920 F877L): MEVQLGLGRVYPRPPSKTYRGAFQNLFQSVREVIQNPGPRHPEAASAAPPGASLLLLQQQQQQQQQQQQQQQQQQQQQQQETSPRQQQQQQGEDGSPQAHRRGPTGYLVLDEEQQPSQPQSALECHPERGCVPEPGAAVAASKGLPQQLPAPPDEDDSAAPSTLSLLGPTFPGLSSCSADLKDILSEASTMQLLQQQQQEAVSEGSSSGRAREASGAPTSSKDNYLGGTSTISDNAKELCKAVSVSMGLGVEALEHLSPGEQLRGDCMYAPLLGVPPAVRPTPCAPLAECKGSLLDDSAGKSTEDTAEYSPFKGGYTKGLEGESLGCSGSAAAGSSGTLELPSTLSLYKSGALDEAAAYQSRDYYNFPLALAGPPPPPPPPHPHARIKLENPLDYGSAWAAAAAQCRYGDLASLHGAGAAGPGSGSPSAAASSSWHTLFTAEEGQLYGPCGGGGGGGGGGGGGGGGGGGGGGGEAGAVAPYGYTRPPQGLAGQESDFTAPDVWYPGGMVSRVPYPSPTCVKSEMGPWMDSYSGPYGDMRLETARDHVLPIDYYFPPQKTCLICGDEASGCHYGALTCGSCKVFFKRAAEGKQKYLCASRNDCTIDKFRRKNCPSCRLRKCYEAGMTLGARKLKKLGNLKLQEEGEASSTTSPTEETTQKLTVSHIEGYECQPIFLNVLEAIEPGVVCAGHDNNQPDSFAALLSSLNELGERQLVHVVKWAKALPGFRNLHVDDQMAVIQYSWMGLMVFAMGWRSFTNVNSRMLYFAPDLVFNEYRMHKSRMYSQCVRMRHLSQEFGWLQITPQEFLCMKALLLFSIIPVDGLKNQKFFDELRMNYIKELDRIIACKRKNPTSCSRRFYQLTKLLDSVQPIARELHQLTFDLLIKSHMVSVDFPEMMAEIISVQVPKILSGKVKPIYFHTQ
Assay: LNCaP-AR-F876L AG reporter assay (ARE firefly luciferase, agonist mode)
Format: cell-based
Details: maximum % stimulation (agonist response) over tested concentration range; read-out: LNCaP-AR-F876L AG MAX % Stim
readout-kind: Emax (%)

compound="N#Cc1ncc(N2C(=O)C3(CCC3)N(c3ccc(C(F)(F)F)cc3)C2=S)cc1C(F)(F)F [Cpd 98]" readout_kind=Emax assay_result=1.6
compound="N#Cc1cccc(N2C(=S)N(c3cnc(C#N)c(C(F)(F)F)c3)C(=O)C23CCC3)c1 [Cpd 79]" readout_kind=Emax assay_result=0.5
compound="CCOC(=O)CCCNC(=O)c1ccc(N2C(=S)N(c3cnc(C#N)c(C(F)(F)F)c3)C(=O)C23CCC3)cc1F [Cpd 82]" readout_kind=Emax assay_result=1.2
compound="Cc1ccc(N2C(=S)N(c3cnc(C#N)c(C(F)(F)F)c3)C(=O)C2(C)C)cc1 [Cpd 110]" readout_kind=Emax assay_result=2.6
